Values compiled from patent US8329739B2.

Entries and their melting point values follow.

Here are 2 molecules together with their reported answers.
Can you look up the measured melting point of COc1cc(OCc2ccccc2)ccc1-c1c[nH]c(-c2ccc(Cl)cc2)n1 for me?
160 to 163 °C

Which melting point value belongs to COc1cc(-c2c[nH]c(-c3ccc(F)cc3)n2)ccc1OCc1ccccc1 ?
214 to 216 °C

Now take the following molecule into account.
// melting point lookup, key: COc1cccc(-c2nc(-c3ccc(OCc4ccc(Cl)cc4F)cc3OC)c[nH]2)c1.Cl
245 to 249 °C

###

Listing of recorded melting point by entry.

Please report the recorded melting point for COc1cc(OCc2ccc(C#N)cc2)ccc1-c1c[nH]c(-c2cccs2)n1 .
193 to 196 °C

Fill in: melting point of COc1cc(OCc2ccc(Cl)cc2F)ccc1-c1c[nH]c(-c2ccc(C(F)(F)F)cc2)n1 is ___
165 to 166 °C

Fill in the blank: the reported melting point of COc1cc(OCc2ccc(C#N)cc2)ccc1-c1c[nH]c(-c2ccc(C)cc2)n1 is ____.
195 to 198 °C

###

Test Target: LPL (lipoprotein lipase) (Mus musculus)
Construct: endogenous in cells; host or cells: C2C12 cells, differentiated
Protocol Text: Confirmation test of LPL activation effect in mouse skeletal muscle cells (C2C12 cells)
Format: cell-based
Condition Parameters: amount of addition 30 μM, 8 hours exposure, vs control group
Description: Human skeletal muscle cells (human skeletal muscle myoblasts) or mouse skeletal muscle cells (C2C12 cells) that were seeded onto plates, cultured, and differentiated were exposed to a 0.3% dimethyl sulfoxide-containing culture medium in which the compound of the present invention was dissolved (concentration: 10 μM or 30 μM). […] LPL activity in the supernatant was measured using an LPL activity assay kit (made by Roar Biomedical Inc.). […]
Reported Rate of increase in LPL activity values for a set of compounds
Response body: numeric value in %, unit text excluded.

Examples from the recorded data:
Please look up its Rate of increase in LPL activity: COc1cc(OCc2ccc(Cl)cc2)ccc1-c1c[nH]c(-c2ccc(C(C)(C)C)cc2)n1
88

Quick one: Rate of increase in LPL activity for COc1cc(-c2nc(-c3ccc(F)cc3)[nH]c2C)ccc1OCc1ccccc1 ?
147

I'd like to know its Rate of increase in LPL activity. The compound in question is COc1cc(OCc2ccc(Cl)cc2)ccc1-c1c[nH]c(-c2ccc(F)c(F)c2)n1
199

If you can, please state the reported Rate of increase in LPL activity value of COc1cc(-c2c[nH]c(-c3ccc(Cl)cc3)n2)ccc1OCc1ccc(C#N)cc1 .
133

// Rate of increase in LPL activity lookup, key: COc1cc(-c2c[nH]c(-c3ccsc3)n2)ccc1OCc1cccc(C#N)c1.Cl
123

More entries:
Please give the measured Rate of increase in LPL activity for this compound: COc1cc(OCc2ccc(Br)cc2F)ccc1-c1c[nH]c(-c2ccc(Cl)c(Cl)c2)n1
88

Can you share its Rate of increase in LPL activity? I mean this compound: COc1cc(OCc2ccc(Cl)cc2)ccc1-c1c[nH]c(-c2cccc(C(F)(F)F)c2)n1.Cl
174

Please look up its Rate of increase in LPL activity: COc1cc(OCc2ccc(Br)cc2F)ccc1-c1c[nH]c(-c2ccc(C(C)(C)C)cc2)n1
130

Return reported Rate of increase in LPL activity; argument: COc1cc(-c2c[nH]c(-c3cccc(F)c3)n2)ccc1OCc1ccc(C#N)cc1
73

Tell me the measured Rate of increase in LPL activity of COc1cc(OCc2ccccc2)ccc1-c1c[nH]c(-c2ccc(C(F)(F)F)cc2)n1 , please.
234

Quick one: Rate of increase in LPL activity for COc1cc(OCc2ccc(Br)cc2F)ccc1-c1c[nH]c(-c2ccc(Cl)cc2)n1 ?
302

Need Rate of increase in LPL activity of COc1cc(OCc2ccc(Br)cc2F)ccc1-c1c[nH]c(-c2ccsc2)n1.Cl , thanks.
289

So what does the record say about Rate of increase in LPL activity for COc1cc(-c2c[nH]c(-c3ccc(C(F)(F)F)cc3)n2)ccc1OCc1ccc(C(F)(F)F)cc1 ?
476

Look up Rate of increase in LPL activity: COc1cc(-c2c[nH]c(-c3cccc(C(F)(F)F)c3)n2)ccc1OCc1ccc(Br)cc1F
115

###

Test Target: LPL (lipoprotein lipase) (Mus musculus, UniProt P11152)
Construct: endogenous in cells; host or cells: C2C12 cells, differentiated
Protocol Text: Confirmation test of LPL activation effect in mouse skeletal muscle cells (C2C12 cells)
Format: cell-based
Condition Parameters: amount of addition 30 μM, 8 hours exposure, vs control group
The entries below are paired with their reported Rate of increase in LPL activity.
Expressed in %, but write only the number.

Known results for molecules:
If you can, please state the reported Rate of increase in LPL activity value of COc1cc(OCc2ccc(Br)cc2F)ccc1-c1c[nH]c(-c2cccc(Cl)c2)n1.Cl .
98

Look up Rate of increase in LPL activity: COc1cc(OCc2ccc(Br)cc2F)ccc1-c1c[nH]c(-c2ccccc2C(F)(F)F)n1.Cl
89

***
GET /values?readout=Rate of increase in LPL activity&item= COC(=O)c1ccc(-c2nc(-c3ccc(OCc4ccc(Br)cc4F)cc3OC)c[nH]2)cc1
123

###

Test Target: LPL (lipoprotein lipase) (Mus musculus)
Construct: endogenous in cells; host or cells: C2C12 cells, differentiated
Sequence (P11152 28-474): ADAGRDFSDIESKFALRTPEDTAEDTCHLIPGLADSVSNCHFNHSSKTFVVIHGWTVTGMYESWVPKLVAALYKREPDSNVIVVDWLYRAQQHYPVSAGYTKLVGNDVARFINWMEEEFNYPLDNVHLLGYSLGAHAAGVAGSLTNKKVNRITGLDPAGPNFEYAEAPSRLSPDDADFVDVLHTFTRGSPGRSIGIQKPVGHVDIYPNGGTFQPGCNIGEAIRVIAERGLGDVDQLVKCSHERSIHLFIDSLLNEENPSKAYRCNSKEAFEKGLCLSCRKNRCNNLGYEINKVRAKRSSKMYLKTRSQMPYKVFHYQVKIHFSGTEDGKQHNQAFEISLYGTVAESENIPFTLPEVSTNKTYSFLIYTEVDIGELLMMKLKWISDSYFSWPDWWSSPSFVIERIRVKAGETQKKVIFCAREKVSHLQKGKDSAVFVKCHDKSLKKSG
Protocol Text: Confirmation test of LPL activation effect in mouse skeletal muscle cells (C2C12 cells)
Type: cell-based
Condition Parameters: amount of addition 10 μM, 8 hours exposure, vs control group
Where a name gives a salt, the structure may show the parent alone.
Test Readout: Rate of increase in LPL activity (%)
The reply should be a number in %, with the unit left off.

Guide cases for Rate of increase in LPL activity, answers given:
Consider the compound shown here: COc1cc(OCc2ccccc2)ccc1-c1c[nH]c(-c2cccc(F)c2)n1.Cl [Example 54] What is its recorded Rate of increase in LPL activity?
18

# lookup: Rate of increase in LPL activity of COc1cc(-c2c[nH]c(-c3ccc(F)cc3)n2)ccc1OCc1ccc(C(F)(F)F)cc1 [Example 164]
4

Dear colleague, I am looking for the recorded Rate of increase in LPL activity of the following compound: COc1cc(OCc2ccc(C#N)cc2)ccc1-c1c[nH]c(-c2ccc(C)cc2)n1 [Example 85]
10

Which Rate of increase in LPL activity value belongs to COc1cc(-c2c[nH]c(-c3ccc(C(F)(F)F)cc3)n2)ccc1OCc1ccc(C#N)cc1 [Example 55] ?
49

What measured Rate of increase in LPL activity goes with COc1cc(OCc2ccc(C#N)cc2)ccc1-c1c[nH]c(-c2ccc(Cl)c(Cl)c2)n1 [Example 111] ?
61

More entries:
Give its Rate of increase in LPL activity value. Item: COc1cc(OCc2ccc(Cl)cc2F)ccc1-c1c[nH]c(-c2ccc(F)cc2)n1.Cl [Example 133]
63

Given the compound COc1cc(-c2c[nH]c(-c3ccc(C(F)(F)F)cc3)n2)ccc1OCc1ccc(Br)cc1F [Example 1, hydrochloride] , what is its reported Rate of increase in LPL activity?
64

Find the recorded Rate of increase in LPL activity belonging to COc1cc(-c2c[nH]c(-c3cccc(C(F)(F)F)c3)n2)ccc1OCc1ccc(C#N)cc1.Cl [Example 75] and report it.
43

// query Rate of increase in LPL activity value for entry COc1ccc(-c2nc(-c3ccc(OCc4ccc(Br)cc4F)cc3OC)c[nH]2)cc1.Cl [Example 86]
40

# lookup: Rate of increase in LPL activity of COc1cc(OCc2ccc(Cl)cc2)ccc1-c1c[nH]c(-c2ccc(Cl)c(Cl)c2)n1 [Example 110]
37

What does the data say about its Rate of increase in LPL activity? Entry: COc1cc(-c2c[nH]c(-c3cccc(F)c3)n2)ccc1OCc1ccccc1.Cl [Example 46]
49

Entry under review: COc1cc(OCc2ccc(C#N)cc2)ccc1-c1c[nH]c(-c2ccc(F)c(F)c2)n1 [Example 96] . Reported Rate of increase in LPL activity?
27
